Cited source for all entries: patent US4673562A

Reported Average % Total Dose in Urine Samples values are given for each entry in this list.
# assay_method_text: Average % total dose in urine samples of dogs (Table II)
# Format: in vivo, dog
# assay_context: 35 min post injection, mean, 35 min
reported_property: Average % Total Dose in Urine Samples (% total dose)

O=C(O)C1C[S][Tc-]23(=[O])[S]CC[N]2C(=O)C(=O)[N]13 (single isomer, unassigned) [XXXIA] ... 35.89
O=C(O)C1C[S][Tc-]23(=[O])[S]CC(=O)[N]2CC(=O)[N]13 (single isomer, unassigned) [XVIB] ... 66.44
O=C(O)C1C[S][Tc-]23(=[O])[S]CC[N]2C(=O)C(=O)[N]13 (single isomer, unassigned) [XXXIB] ... 62.93
O=C(O)C1C[S][Tc-]23(=[O])[S]CC(=O)[N]2CC(=O)[N]13 (single isomer, unassigned) [XVIA] ... 67.50
